tested on: HCT-15 colon; assay: NCI-60 one-dose screen, 48 h (100 = growth as untreated, 0 = no growth, -100 = all killed); settings: 10 µM unless noted
This is part of a sample that, as a whole, favours compounds with a hit. Of some 83,000 tested, about 20% had one in any assay.
The following ranges of growth define the classes used here: bottom (below 10%), middle (10% to below 50%), top (50% or more)

• COc1cc(NC(=O)c2cccc(C3CCc4c(cc(OC)c(OC)c4OC)O3)c2)cc(OC)c1OC (stereo unspecified) = bottom
• CC1CCCCN1CCCNC(=O)N/C(N)=N/c1nc2ccccc2s1 (stereo unspecified) = bottom
• O=C(NNc1ccccc1)n1c(=O)c2ccccc2c(=O)n1-c1ccccc1 = top
• COc1ccc(C(=O)/C=C/c2ccc(OC)c(OCc3ccccc3)c2)cc1OC = bottom
• COc1cc2oc(-c3cccc(C(=O)Nc4ccc(Cl)cc4)c3)cc(=O)c2c(OCC(=O)N[C@@H](Cc2ccccc2)C(=O)O)c1OC = top
• COc1cc(-c2cc(-c3cccc(OCC(=O)O)c3)[nH]c(=O)c2C#N)cc(OC)c1OC = top
• Cn1cc(-c2nc(N)nnc2-c2c[nH]c3ccc(Br)cc23)c2cccnc21 = middle
• CC12CC[C@@H]3[C@]4(C)COC(c5cn[nH]c5-c5ccc(Cl)cc5)O[C@@H]4CC[C@@]3(C)[C@@H]1CC(C1=CCOC1=O)O2 (stereo partly specified) = middle
• O=C(COc1ccc(NC(=O)Nc2ccc(Cl)cc2)cc1)N/N=C/c1ccccc1 = bottom
• COc1cc2c(c(OC)c1OC)C(=O)CC(c1cccc(NC(=O)c3cc([N+](=O)[O-])ccc3Cl)c1)O2 (stereo unspecified) = bottom
• O=C(CSc1nc2ccccc2c(=O)[nH]1)NCCN1CCCCC1 = top
• CCCCOc1ccc(NC(=O)c2sc3nc(C)ccc3c2N)cc1 = middle
• COc1cccc(COc2ccc(NC(=O)Nc3ccc(Cl)c(C(F)(F)F)c3)cc2)c1 = middle
• O=C(COc1ccc(NC(=O)Nc2ccc(Cl)c(Cl)c2)cc1)N=Nc1c(O)[nH]c2ccc([N+](=O)[O-])cc12 = top
• C(=C\c1cc(/C=C/c2ccccc2)c2ccccc2n1)/c1ccccc1 = middle
• COc1ccc(-c2nc3cc(C)ccc3n2CC(=O)N=Nc2c(O)[nH]c3ccccc23)cc1 = bottom
• CC(C)CSc1nc(NCCc2c[nH]c3ccccc23)c(C#N)c(-c2ccc(F)cc2)n1 = middle
• CC1=C(C(=O)OCc2ccccc2)C(c2ccc(-n3cncn3)cc2)n2c(nc3ccccc32)N1 (stereo unspecified) = middle
• CN(C)CCCNC(=O)c1cc(NC(=O)c2cc(NC(=O)c3ccc(C#Cc4ccccc4)cc3)cn2C)cn1C = bottom
• O=c1[nH]c2ccccc2cc1CSc1cccc(Nc2nccc(-c3ccc4ccccc4c3)n2)c1 = top
• COc1ccc(C2=NN(c3ccccc3)C(c3ccc(OC)c(OCc4ccccc4)c3)C2)cc1OC (stereo unspecified) = top
• CCCCSc1nc(NCCc2c[nH]c3ccccc23)c(C#N)c(-c2ccc(OC)cc2)n1 = middle
• Clc1cccc(-c2ccc(OCCCN3CCN(c4ccncc4)CC3)cc2)c1 = bottom
• O=C(N=Nc1c(O)[nH]c2ccc(Cl)cc12)c1ccc2nc(-c3ccccc3)[nH]c2c1 = top
• COc1ccc2c(c1)c(/C=N/Nc1ccc3ccccc3n1)cn2C = bottom
• O=C(Cn1c(/C=C/c2ccccc2)nc2ccccc2c1=O)Nc1ccccc1 = top
• CCN(CC)c1ccnc(CNCCSC(c2ccccc2)(c2ccccc2)c2ccc(OC)cc2)c1 = bottom
• O=c1c2ccccc2nc(-c2ccccc2)n1/N=C/c1ccc2ccccc2c1 = middle
• C#CCOc1cc(N(CC)CC)ccc1C(C(=O)NC(C)(C)C)N(C(=O)C1CCc2cc(F)ccc2O1)c1ccc(Br)cc1 (stereo unspecified) = top
• CCCCSc1nc(Nc2ccc(S(N)(=O)=O)cc2)c(C#N)c(-c2cc(OC)c(OC)c(OC)c2)n1 = middle

These measurements were taken from PubChem BioAssay (NCI).
